Exercise: state measured pIC50 for each of the compounds provided.
Target: recombinant hGYS1/GN1 protein (Homo sapiens)
Sequence (P13807 whole entry): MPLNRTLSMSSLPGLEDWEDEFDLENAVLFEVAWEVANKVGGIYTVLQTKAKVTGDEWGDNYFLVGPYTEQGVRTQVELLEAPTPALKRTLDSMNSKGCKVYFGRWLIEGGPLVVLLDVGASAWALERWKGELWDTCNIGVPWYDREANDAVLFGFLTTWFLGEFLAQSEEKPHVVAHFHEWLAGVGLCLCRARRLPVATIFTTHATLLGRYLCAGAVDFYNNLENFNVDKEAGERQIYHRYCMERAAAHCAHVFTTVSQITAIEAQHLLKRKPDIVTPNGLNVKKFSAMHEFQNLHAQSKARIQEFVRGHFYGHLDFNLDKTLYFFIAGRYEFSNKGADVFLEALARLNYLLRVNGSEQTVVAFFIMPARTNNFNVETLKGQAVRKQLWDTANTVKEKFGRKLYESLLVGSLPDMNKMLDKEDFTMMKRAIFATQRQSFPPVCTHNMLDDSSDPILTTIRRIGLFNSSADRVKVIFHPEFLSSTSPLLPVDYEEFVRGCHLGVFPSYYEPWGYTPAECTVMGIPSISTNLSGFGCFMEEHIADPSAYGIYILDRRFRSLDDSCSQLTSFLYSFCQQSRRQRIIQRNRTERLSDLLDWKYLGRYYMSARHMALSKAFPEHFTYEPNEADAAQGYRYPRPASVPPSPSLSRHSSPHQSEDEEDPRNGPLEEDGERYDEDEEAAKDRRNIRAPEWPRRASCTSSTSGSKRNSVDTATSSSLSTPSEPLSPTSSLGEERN
Sequence (P46976 whole entry partner): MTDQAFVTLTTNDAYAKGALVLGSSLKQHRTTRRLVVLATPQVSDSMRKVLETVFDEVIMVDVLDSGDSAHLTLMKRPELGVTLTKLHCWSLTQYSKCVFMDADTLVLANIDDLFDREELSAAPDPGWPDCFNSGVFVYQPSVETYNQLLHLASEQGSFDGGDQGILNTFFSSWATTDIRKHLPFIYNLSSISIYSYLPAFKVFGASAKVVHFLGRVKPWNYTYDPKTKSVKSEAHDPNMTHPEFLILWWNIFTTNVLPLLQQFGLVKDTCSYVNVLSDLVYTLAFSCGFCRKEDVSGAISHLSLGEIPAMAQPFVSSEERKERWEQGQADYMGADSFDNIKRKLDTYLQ
Assay: GYS1 coupled enzyme assay (PK/LDH)
Details: geometric mean of at least 2 assay runs; NADH absorbance at 340 nm
# reply with the number alone; pIC50 is -log10 of concentration in mol/L

### Prompt Request the reported pIC50 associated with O=C(N[C@@H](c1ccccc1)c1ccc(C2CCC2)cc1)C1CC1
### Response 5.88

### Prompt Need pIC50, item CC(C)c1ccc([C@@H](NC(=O)C2CC2)c2ccccc2N/C(N)=N/C#N)cc1
### Response 6.52

### Prompt Need pIC50, item CNC(=O)Nc1ccccc1[C@H](NC(=O)C1CC1)c1ccc(C(C)C)cc1
### Response 5.91

### Prompt Could you share which pIC50 value was measured for COc1ccccc1[C@H](NC(=O)C1CC1)c1ccc(C(C)C)cc1 (single isomer, unassigned) ?
### Response 6.40

### Prompt Fill blank: measured pIC50 of the compound CC(C)c1ccc([C@@H](NC(=O)C2CC2)c2ccccc2)cc1 is ____.
### Response 6.15

### Prompt # query: pIC50 of entry CC(C)c1ccc([C@@H](NC(=O)[C@H]2C[C@@H]2F)c2cccc3[nH]c(=O)[nH]c23)cc1F (single isomer, unassigned)
### Response 6.88

### Prompt Returns the measured pIC50 for the input compound. Input: COc1cccc([C@H](NC(=O)C2CC2)c2ccc(C(C)C)cc2)c1
### Response 6.10

### Prompt Give the measured pIC50 of CC(C)c1ccc([C@@H](NC(=O)C2CC2)c2ccccc2)nc1 .
### Response 5.60

All values here come from patent US20260085034A1.
